assay: TROY pathway blockers in reporter cells – Q293 LMP1-TROYcd cells, NF-kB luciferase, uHTS, primary screen (AID 1347056); settings: 4 h, at 10 µM, stronger effect = higher value
The whole screen tested about 360,000 compounds, of which about 3,600 (1%) were called active. Only a selection was taken, and actives are over-represented in it overall.
Here, each record is paired with measured inhibition data.
Numeric only. Scale: %

Study these solved cases before continuing.
Molecule	Result Units	Meas Value
CN1CCC(OC(=O)c2cccc(F)c2)CC1	%	-37.5
CCOC(=O)c1c(N)n(Cc2ccccc2)c2nc3ccccc3nc12	%	51.6
O=c1[nH]c2ccccc2n1C1CCN(C(c2ccccc2)c2nnnn2Cc2ccccc2)CC1 (stereo unspecified)	%	18.3
Cc1ccc(C2CN(C)CC2C(=O)c2ccc(F)cc2)cc1 (stereo unspecified)	%	57.6
COc1ccc(-n2nnnc2C(c2cccc3ccccc23)N2CCC(n3c(=O)[nH]c4ccccc43)CC2)cc1 (stereo unspecified)	%	27.6

Lab book: inhibition of NCCc1c[nH]c2ccc(O)cc12 noted as 13
